assay target: T1, human LAG-3 overexpressed on cells (human, UniProt P18627 23-525)
T1 sequence (looked up): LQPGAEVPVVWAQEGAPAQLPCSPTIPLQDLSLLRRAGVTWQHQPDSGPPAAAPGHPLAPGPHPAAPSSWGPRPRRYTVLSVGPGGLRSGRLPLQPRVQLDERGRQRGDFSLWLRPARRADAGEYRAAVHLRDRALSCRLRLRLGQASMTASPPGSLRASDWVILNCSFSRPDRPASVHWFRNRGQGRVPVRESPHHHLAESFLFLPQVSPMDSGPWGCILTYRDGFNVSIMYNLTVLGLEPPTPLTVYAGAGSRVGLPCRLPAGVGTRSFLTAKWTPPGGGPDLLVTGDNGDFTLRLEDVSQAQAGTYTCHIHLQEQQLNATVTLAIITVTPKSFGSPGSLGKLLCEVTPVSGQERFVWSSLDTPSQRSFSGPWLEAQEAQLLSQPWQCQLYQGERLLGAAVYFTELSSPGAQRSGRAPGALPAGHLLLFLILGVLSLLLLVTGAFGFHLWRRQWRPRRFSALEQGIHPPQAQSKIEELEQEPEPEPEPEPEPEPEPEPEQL
assay notes: cell-based or functional assay
outcome measure: EC50 (µg/ml), LAG3/MHC class II Blockade bioassay (µg/mL)
Return type: number; implicit unit µg/mL.

Request: Param item = LAG3-1E09_FR_1A10 (antibody, V domains shown, Tested as full IgG) VH: EVQLVESGGGLVKPGGSLRLSCAASGFSFSDHYMNWIRQAPGKGLEWVAYIDTSATYIYYADSVKGRFTISRDNAKNSLYLQMNSLRAEDTAVYYCARDNWGSLDYWGQGTLVTVSS VL: DIQMTQSPSSLSASVGDRVTITCQANQDISNYLNWYQQKPGKAPKLLIYDASNLETGVPSRFSGGGSGTDFTLTINNLQPEDFATYYCHHSYNTPITFGQGTRLEIK ; retrieve measured EC50 (µg/ml), LAG3/MHC class II Blockade bioassay.
Result: 0.811

Request: LAG3-1E09_AM_1B03 (antibody, V domains shown, Tested as full IgG) VH: EVQLVESGGDLVQPGGSLRLSCAASGFSFNDHYMNWIRQAPGKGLEWVAYIDTSATYIYYADSVKGRFTISRDNAKNSLYLQMNSLRAEDTAVYYCARDNWGSLDYWGQGTLVTVSS VL: DIQMTQSPSSLSASVGDRVTMTCQASQDVSNYLNWYQQKPGKAPKLLIYDASNLEIGVPSRFSGSGSGTDFTFTISSLQPEDTATYYCQQYDHLPPYTFGQGTKLEIK , same question.
Result: 1.82
